Let's look at some compounds and their measured inhibition.
Target: Sodium-dependent dopamine transporter (Rattus norvegicus)
Test: Ability to inhibit the uptake of [3H]dopamine (DA) 0.1 uM concentration at rat brain synaptosomes
Type: functional, subcellular
REPORTED PROPERTY: inhibition (%)

STRUCTURE AS SMILES	REPORTED PROPERTY	READOUT NUMBER
c1ccc([C@@H]2CN3CCC[C@@H]3c3ccccc32)cc1	inhibition	6
c1ccc(C[C@@H]2CN3CCC[C@H]3c3ccccc32)cc1	inhibition	15
CC(=O)Nc1ccc([C@@H]2CN3CCC[C@H]3c3ccccc32)cc1	inhibition	57
FC(F)(F)c1cccc([C@@H]2CN3CCC[C@@H]3c3cccc(Cl)c32)c1	inhibition	8
FC(F)(F)c1cc([C@@H]2CN3CCC[C@H]3c3ccccc32)cc(C(F)(F)F)c1	inhibition	-3
F[C@@]1(c2ccccc2)CN2CCC[C@H]2c2ccccc21	inhibition	22
Cc1ccccc1[C@@H]1CN2CCC[C@H]2c2ccccc21	inhibition	-1
FC(F)(F)c1cccc([C@@H]2CN3CCC[C@H]3c3ccccc32)c1	inhibition	8
FC(F)(F)c1cc([C@@H]2CN3CCC[C@@H]3c3ccccc32)cc(C(F)(F)F)c1	inhibition	5
C[C@H]1[C@H](c2ccccc2)c2ccccc2[C@@H]2CCCN21	inhibition	17
c1ccc([C@@]23CCCN2CCc2ccccc23)cc1	inhibition	0
Br.FC(F)(F)c1ccccc1[C@@H]1CN2CCC[C@@H]2c2ccccc21	inhibition	14

----------
Species: Mus musculus
Assay: Antagonism of tetrabenazine (TBZ)-induced depression in mice measured for ptosis
Format: functional
Details: Mus musculus; read-out: ED50
REPORTED PROPERTY: ED50

STRUCTURE AS SMILES	RESULT
Br.Nc1ccc([C@@H]2CN3CCC[C@@H]3c3ccccc32)cc1	~0.01 mg/kg
Br.FC(F)(F)c1ccccc1[C@@H]1CN2CCC[C@@H]2c2ccccc21	> 3 mg/kg
CSc1ccccc1[C@@H]1CN2CCC[C@@H]2c2ccccc21	~0.6 mg/kg
FC(F)(F)c1ccc([C@@H]2CN3CCC[C@@H]3c3ccccc32)cc1	~2 mg/kg
C#Cc1ccc([C@@H]2CN3CCC[C@@H]3c3ccccc32)cc1	~0.5 mg/kg
Br.Oc1cc2c(cc1O)[C@@H]1CCCN1C[C@H]2c1ccccc1	> 60 mg/kg
Cc1ccccc1[C@@H]1CN2CCC[C@@H]2c2ccccc21	~1 mg/kg

----------
Species on record: Mus musculus
Assay: Antagonism of tetrabenazine (TBZ)-induced depression in mice measured for ptosis
Assay type: functional
Conditions: Mus musculus; read-out: ED50
Let's look at some compounds and their measured log10 ED50.
REPORTED PROPERTY: log10 ED50 (log10 of the value in mg/kg)

COMPOUND	log10 ED50
Br.O[C@@]1(c2ccccc2)CN2CCC[C@H]2c2ccccc21	0.79
Br.Oc1ccc([C@@H]2CN3CCC[C@@H]3c3ccccc32)cc1O	-0.96
Br.CC(=O)Nc1ccc([C@@H]2CN3CCC[C@@H]3c3ccccc32)cc1	-1.38
Br.CS(=O)(=O)c1ccc([C@@H]2CN3CCC[C@H]3c3ccccc32)cc1	1.25
Br.C[C@]1(c2ccccc2)CN2CCC[C@H]2c2ccccc21	-0.36
Br.c1ccc([C@@H]2Cc3ccccc3[C@@H]3CCCN23)cc1	-0.06
C[C@@]12CCCN1C[C@H](c1ccc(Cl)cc1)c1ccccc12	0.18
Br.COc1ccc([C@@H]2CN3CCC[C@H]3c3ccccc32)cc1	0.48
Br.Fc1ccc([C@@H]2CN3CCC[C@H]3c3cc(F)ccc32)cc1	0.20
Br.c1ccc2c(c1)[C@@H](C1CCCCC1)CN1CCC[C@@H]21	0.28
Clc1ccc([C@@H]2CN3CCC[C@@H]3c3ccccc32)cc1Cl	-0.85
CSc1ccc([C@@H]2CN3CCC[C@@H]3c3ccccc32)cc1 (stereo in doubt; 48b)	-0.52
COc1cccc([C@@H]2CN3CCC[C@@H]3c3ccccc32)c1	-1.15
Br.c1ccc([C@H]2CN3CCC[C@H]3c3ccsc32)cc1	-0.10
CC(=O)Nc1ccc([C@@H]2CN3CCC[C@H]3c3ccccc32)cc1	0.26
Br.Oc1ccc([C@@H]2CN3CCC[C@H]3c3ccccc32)cc1O	0.26

----------
Organism: Mus musculus
Assay: Antagonism of tetrabenazine (TBZ)-induced depression in mice measured for ptosis
Type: functional
Settings: Mus musculus; read-out: ED50
REPORTED PROPERTY: ED50

STRUCTURE AS SMILES	REPORTED PROPERTY	RESULT
Br.Brc1ccccc1[C@@H]1CN2CCC[C@@H]2c2ccccc21	ED50	~1 mg/kg
Br.c1ccc([C@H]2Cc3ccccc3[C@@H]3CCCN23)cc1	ED50	~3 mg/kg
Fc1ccc([C@@H]2CN3CCC[C@H]3c3ccccc32)cc1	ED50	> 10 mg/kg
Br.c1csc([C@H]2CN3CCC[C@H]3c3ccsc32)c1	ED50	~30 mg/kg
COc1ccccc1[C@@H]1CN2CCC[C@@H]2c2ccccc21	ED50	~0.3 mg/kg

----------
Organism: Mus musculus
Assay: Gross behavioral effects ascertained in mice; W indicates weak stimulant or depressant activity of little significance.
Type: functional, organism-based

COMPOUND	behavior
c1ccc([C@@H]2CN3CCC[C@@H]3c3ccccc32)cc1	Partial stimulant
Br.COc1cc([C@@H]2CN3CCC[C@H]3c3ccccc32)cc(OC)c1OC	Partial stimulant
Br.COc1ccc([C@@H]2CN3CCC[C@H]3c3ccccc32)cc1	Weak
Br.Oc1ccc([C@@H]2CN3CCC[C@H]3c3ccccc32)cc1O	Partial stimulant
O=[N+]([O-])c1ccc([C@@H]2CN3CCC[C@H]3c3ccccc32)cc1	Weak
Br.COc1ccc([C@@H]2CN3CCC[C@@H]3c3ccccc32)cc1	Weak
Br.Fc1ccc([C@@H]2CN3CCC[C@H]3c3cc(F)ccc32)cc1	Partial stimulant
Fc1ccc([C@@H]2CN3CCC[C@H]3c3ccccc32)cc1	Weak
Br.Clc1ccccc1[C@@H]1CN2CCC[C@H]2c2ccccc21	Partial stimulant
O[C@]1(c2ccccc2)CN2CCC[C@H]2c2ccccc21	Weak
Br.Oc1cc2c(cc1O)[C@@H]1CCCN1C[C@H]2c1ccccc1	Partial stimulant
C[C@H]1[C@@H](c2ccccc2)c2ccccc2[C@@H]2CCCN21	Weak
COc1cccc2c1[C@H](c1ccccc1)CN1CCC[C@@H]21	Weak
Clc1ccccc1[C@@H]1CN2CCC[C@@H]2c2ccccc21 (stereo in doubt; 24b)	Partial stimulant
CCCCc1ccc([C@@H]2CN3CCC[C@@H]3c3ccccc32)cc1	Weak
Br.F[C@]1(c2ccccc2)CN2CCC[C@H]2c2ccccc21	Weak
Br.c1csc([C@H]2CN3CCC[C@H]3c3ccsc32)c1	Weak
COc1ccccc1[C@@H]1CN2CCC[C@@H]2c2ccccc21	Partial stimulant
CC(=O)Nc1ccc([C@@H]2CN3CCC[C@H]3c3ccccc32)cc1	Weak
FC(F)(F)c1cccc([C@@H]2CN3CCC[C@H]3c3ccccc32)c1	Partial stimulant
C[C@@]12CCCN1CCc1ccccc12	Weak
Clc1ccc([C@@H]2CN3CCC[C@H]3c3ccccc32)cc1	Weak

----------
Target: Sodium-dependent serotonin transporter (Rattus norvegicus) (UniProt P31652)
Sequence (P31652 whole entry): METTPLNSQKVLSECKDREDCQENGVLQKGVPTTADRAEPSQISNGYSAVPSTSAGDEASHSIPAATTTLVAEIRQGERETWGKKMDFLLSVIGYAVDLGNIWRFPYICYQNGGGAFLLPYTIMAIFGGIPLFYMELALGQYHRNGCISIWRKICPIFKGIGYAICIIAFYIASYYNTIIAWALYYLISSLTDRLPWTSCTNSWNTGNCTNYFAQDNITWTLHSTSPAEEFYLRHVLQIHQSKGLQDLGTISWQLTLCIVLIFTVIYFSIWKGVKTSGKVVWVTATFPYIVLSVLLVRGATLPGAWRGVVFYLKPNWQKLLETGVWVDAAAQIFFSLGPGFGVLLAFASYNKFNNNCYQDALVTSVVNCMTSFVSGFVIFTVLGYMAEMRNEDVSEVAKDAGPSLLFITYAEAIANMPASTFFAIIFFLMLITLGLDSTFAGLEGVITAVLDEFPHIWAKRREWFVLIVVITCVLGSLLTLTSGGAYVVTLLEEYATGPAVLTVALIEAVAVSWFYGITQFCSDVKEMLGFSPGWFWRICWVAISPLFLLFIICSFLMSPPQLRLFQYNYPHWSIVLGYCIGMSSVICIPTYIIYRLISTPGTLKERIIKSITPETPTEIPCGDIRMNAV
Test: Ability to inhibit the uptake of [3H]- serotonin(5-HT) 0.1 uM concentration at rat brain synaptosomes
Type: functional, subcellular

STRUCTURE AS SMILES	RESULT UNIT	inhibition
Cc1ccccc1[C@@H]1CN2CCC[C@H]2c2ccccc21	%	-6
C[C@@]12CCCN1C[C@@H](c1ccccc1)c1ccccc12	%	23
C[C@@]12CCCN1CCc1ccccc12	%	2
Br.Nc1ccc([C@@H]2CN3CCC[C@H]3c3ccccc32)cc1	%	17
C[C@@H]1[C@@H](c2ccccc2)c2ccccc2[C@@H]2CCCN12	%	12
Br.F[C@]1(c2ccccc2)CN2CCC[C@H]2c2ccccc21	%	6
c1ccc([C@@H]2CN3CC[C@@H]4CCCC[C@@]43c3ccccc32)cc1	%	4
Br.c1ccc([C@@H]2CN3CCCCC[C@H]3c3ccccc32)cc1	%	6
FC(F)(F)c1cccc([C@@H]2CN3CCC[C@@H]3c3cccc(Cl)c32)c1	%	5
C[C@H]1[C@@H](c2ccccc2)c2ccccc2[C@@H]2CCCN21	%	3
C[C@H]1[C@H](c2ccccc2)c2ccccc2[C@@H]2CCCN21	%	15
FC(F)(F)c1cc([C@@H]2CN3CCC[C@@H]3c3ccccc32)cc(C(F)(F)F)c1	%	25
O=C(O)c1ccccc1[C@@H]1CN2CCC[C@H]2c2ccccc21	%	1
C[C@@]12CCCN1C[C@@H](c1ccc(Cl)cc1)c1ccccc12	%	21
F[C@@]1(c2ccccc2)CN2CCC[C@H]2c2ccccc21	%	-3
c1ccc([C@@H]2CN3CCCC[C@H]3c3ccccc32)cc1	%	11
O=C(O)c1ccccc1[C@@H]1CN2CCC[C@@H]2c2ccccc21	%	6
c1ccc(C[C@@H]2CN3CCC[C@H]3c3ccccc32)cc1	%	-3
Br.C[C@@]1(c2ccccc2)CN2CCC[C@H]2c2ccccc21	%	14
c1ccc(C[C@H]2CN3CCC[C@H]3c3ccccc32)cc1	%	32
O=[N+]([O-])c1ccc([C@@H]2CN3CCC[C@H]3c3ccccc32)cc1	%	25
c1ccc2c(c1)[C@H](C1CCCCC1)CN1CCC[C@@H]21	%	0
